Just for reference, a melting point compilation (Tetko et al.; mined from patent text by program, amines drawn as free bases though some values may be those of a salt) is where these values come from.

Below, each of the compounds is paired with its reported melting point value.

# query: melting point of entry "COC(=O)c1nc(Br)cc(N=[N+]=[N-])c1Cl" 84 to 86 °C

# query: melting point of entry "CCCCC(=N)NC(=O)Nc1ccccc1OCc1ccccc1" 145 to 147 °C

# query: melting point of entry "O=C(O)c1csc2c(=O)cc(-c3ccccc3)oc12" 282 to 283 °C

----------
assay-endpoint: melting point

molecule | melting point
CC(C)(C)OC(=O)N1CCC(N2C(=O)OCc3cc(Cl)ccc32)CC1 | 177 to 179 °C
CCOCn1cnc2c(N)nc3ccccc3c21 | 255 to 261 °C

# query: melting point of entry "CCOC(=O)CNC(=O)c1ncc(O)cc1O" 96 to 98 °C

# query: melting point of entry "Cc1cccc(C)c1NC(=O)CCCl" 131 °C

----------
assay-endpoint: melting point

Previously resolved entries follow.
molecule | test-value
c1ccc(-c2ncc(-c3cnc(-c4ccccc4)o3)cn2)cc1 | 228 to 231 °C
CSc1nc2ccc(Br)cc2c2nn(-c3ccc(C)cc3)c(=O)n12 | 213 °C
CC(C)(C)OC(=O)n1cc(C(=O)c2ccn3c2CSC3c2cccnc2)c2ccccc21 (stereo not given) | 150 to 152 °C

Now consider a different molecule.
# query: melting point of entry NC(C=C(Cc1ccccc1)CP(=O)(O)O)C(=O)O (stereo not given) 196 to 198 °C

----------
Below, each of the compounds is paired with its reported melting point value.

Previously resolved entries follow.
compound | assay-endpoint | test-value
CC(Cc1ccccc1)(C(=O)O)S(=O)(=O)c1cccs1 (centres undefined) | melting point | 116 to 117 °C
Cc1ccc(F)c2c1N(CC(=O)Nc1ccccc1F)C(=O)C21COc2cc3c(cc21)CCO3 (centres undefined) | melting point | 250 to 255 °C
O=C1C(=O)c2ccccc2C2=C1SCC1(CCN(C(=O)c3ccc(Cl)c(Cl)c3)CC1)O2 | melting point | 221 °C

Now consider a different compound.
# query: melting point of entry "CCc1nc(/C=C/c2cn(-c3ccccc3)nc2OCc2ccc(OCc3nc(-c4ccc(C(=O)O)s4)oc3C)c(OC)c2)cs1" 150 to 151 °C

----------
Below, each of the compounds is paired with its reported melting point value.

Previously resolved entries follow.
compound | melting point
CCOC(=O)C(N)c1ccc(C(C)=O)cc1 (configuration not stated) | 77 to 78 °C
CCOC(=O)C1C(C=C(Br)Br)C1(C)C (configuration not stated) | 110 °C
Cc1noc2ccc([N+](=O)[O-])cc12 | 84.5 to 86.5 °C
COC(=O)/C=C(\C)C(C)Sc1nc(N)cc(Cl)n1 (configuration not stated) | 124 to 126 °C
CCCc1nc(CO)c[nH]1 | 95 to 101 °C
Cc1ccc(=O)n(-c2cc(F)c(C#N)cc2F)n1 | 159 °C
COC(=O)c1cc2c(C)ccc(Cl)c2[nH]1 | 133 to 134 °C
CCN(CC)CCNC(=O)c1cc(C#N)c(Cl)cc1OC | 104 to 105 °C

# query: melting point of entry CN1C(=O)CCC2(C)C1=CCC1C2CCC2(C)C(O)CCC12 (configuration not stated) 181 to 183 °C

----------
assay-endpoint: melting point

molecule | test-value
O=C1COc2ccc(C3=Cc4ccc(NCCCO)cc4OC3c3ccccc3)cc2N1 (centres undefined) | 215 to 217 °C

# query: melting point of entry Cc1cc(CNc2cccc3c2C(=O)N(C2CCC(=O)NC2=O)C3=O)oc1C (centres undefined) 127 to 129 °C

# query: melting point of entry "O=C1c2c(Cl)cccc2-n2cnc(-c3noc(CN4CCCCC4)n3)c2[C@@H]2CCN12" 177 to 179 °C

# query: melting point of entry "O=C(O)c1ccc2nc(-c3ccc(C(=O)NC4CCCCC4)cc3)[nH]c2c1" 334 to 337 °C

# query: melting point of entry "Cc1cc(-c2ccc(C(F)(F)F)cc2)cn2c(-c3nc(-c4ccc(N)nc4)no3)cnc12" 257 °C

# query: melting point of entry O=C(OCC1OC(OCc2ccccc2)C(OCc2ccccc2)C(OCc2ccccc2)C1OCc1ccccc1)c1ncc[nH]1 (centres undefined) 105 to 108 °C
